# System: liver microsomes (Mus musculus)
# EXPERIMENT NOTES: Stability in mouse liver microsomes assessed as parent compound remaining at 2 uM measured immediately in absence of cofactor
# CONDITION CONTEXT: read-out: Stabilty
MEASURED PARAMETER: remaining at 0 min, 2 µM (%)
Numbers only, in %.

Ask: Request the reported remaining at 0 min, 2 µM associated with COc1cc2c(-c3cc(OC)c(OC)c(OC)c3)nccc2cc1O
Reply: 100

----------
# Test system: liver microsomes (Mus musculus)
# EXPERIMENT NOTES: Stability in mouse liver microsomes assessed as parent compound remaining at 2 uM measured immediately in presence of cofactor
# CONDITION CONTEXT: read-out: Stabilty
MEASURED PARAMETER: remaining at 0 min, 2 µM (%)
Answers are plain numbers, in %.

Ask: For liver microsomes (Mus musculus), provide remaining at 0 min, 2 µM of COc1cc2c(-c3cc(OC)c(OC)c(OC)c3)nccc2cc1O please.
Reply: 100
